Target: JAK2 (Homo sapiens, UniProt O60674)
Construct: All enzymes only contain the catalytic domain; His (N)
Sequence (O60674 849-1124 limits assumed): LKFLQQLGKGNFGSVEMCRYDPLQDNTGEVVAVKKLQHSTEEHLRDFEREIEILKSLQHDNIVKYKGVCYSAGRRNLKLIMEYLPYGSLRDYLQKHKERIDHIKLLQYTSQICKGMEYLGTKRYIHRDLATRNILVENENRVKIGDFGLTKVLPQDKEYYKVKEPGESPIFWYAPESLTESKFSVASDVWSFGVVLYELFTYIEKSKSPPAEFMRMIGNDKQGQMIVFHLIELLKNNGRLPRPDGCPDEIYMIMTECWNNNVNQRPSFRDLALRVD
Assay: In vitro enzyme assay (cell-free HTRF kinase assay), JAK2
Conditions: catalytic domain, His-tag; ATP 10 μM, SRCtide 25 nM, reaction 30 min
endpoint.label: IC50

Measured IC50 (JAK2 (Homo sapiens, UniProt O60674)), entry CNCc1cc(Cl)c(C(=O)c2c[nH]c3c(NC(=O)C4CC4)nccc23)c(Cl)c1 : < 100 nM

Value (IC50, JAK2 (Homo sapiens, UniProt O60674)) for record O=C(NCC1CC1)c1cc(Cl)c(C(=O)n2ccc3c(NC(=O)C4CC4)nccc32)c(Cl)c1 = < 1000 nM

Record CN(CCO)C(=O)Nc1cc(Cl)c(C(=O)n2ccc3c(NC(=O)C4CC4)nccc32)c(Cl)c1 has JAK2 (Homo sapiens, UniProt O60674) IC50 equal to < 500 nM

For O=C(NCc1ccccn1)c1cc(Cl)c(C(=O)n2ccc3c(NC(=O)C4CC4)nccc32)c(Cl)c1 on JAK2 (Homo sapiens, UniProt O60674), measured IC50 was < 500 nM

JAK2 (Homo sapiens, UniProt O60674) assay, molecule O=C(Nc1nccc2c1ccn2C(=O)c1c(Cl)cc(CNCCN2CCNC2=O)cc1Cl)C1CC1 , recorded IC50 = < 500 nM

Recorded IC50 for O=C(NCCN1CCCCC1)c1cc(Cl)c(C(=O)n2ccc3c(NC(=O)C4CC4)nccc32)c(Cl)c1 on JAK2 (Homo sapiens, UniProt O60674) was < 500 nM

JAK2 (Homo sapiens, UniProt O60674) IC50 of CCOC(=O)[C@H](C)NC(=O)c1cc(Cl)c(C(=O)n2ccc3c(NC(=O)C4CC4)nccc32)c(Cl)c1 is < 1000 nM

---

Target: JAK1 (Homo sapiens)
Construct: JAK1 (aa 850-1154) and TYK2 (aa 871-1187) are expressed with an N-terminally fused GST-tag; GST (N)
Sequence (P23458 850-1154): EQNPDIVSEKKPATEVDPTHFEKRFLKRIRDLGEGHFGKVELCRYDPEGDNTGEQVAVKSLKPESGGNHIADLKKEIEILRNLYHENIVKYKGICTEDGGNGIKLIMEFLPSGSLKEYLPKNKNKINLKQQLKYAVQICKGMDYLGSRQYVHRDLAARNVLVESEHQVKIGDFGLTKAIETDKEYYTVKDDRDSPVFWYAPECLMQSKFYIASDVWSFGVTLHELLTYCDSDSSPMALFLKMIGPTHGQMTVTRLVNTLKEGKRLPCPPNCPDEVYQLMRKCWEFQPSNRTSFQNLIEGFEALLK
Experiment: In vitro enzyme assay (cell-free HTRF kinase assay), JAK1
Settings: catalytic domain aa 850-1154, GST-tag; ATP 60 μM, SRCtide 400 nM, reaction 120 min
endpoint.label: IC50

The measured IC50 associated with COCCNC(=O)Nc1cc(Cl)c(C(=O)n2ccc3c(NC(=O)C4CC4)nccc32)c(Cl)c1 reads < 1000 nM

The reported IC50 of the compound O=C(c1c(F)cccc1Cl)c1c[nH]c2cnc(NC(=O)C3CC3)cc12 was < 500 nM

The reported IC50 of the compound NCCNC(=O)c1cc(Cl)c(C(=O)n2ccc3c(NC(=O)C4CC4)nccc32)c(Cl)c1 was < 500 nM

Data point: O=C(NCC(O)CO)c1cc(Cl)c(C(=O)n2ccc3c(NC(=O)C4CC4)nccc32)c(Cl)c1 (stereo not drawn) ; IC50 = < 1000 nM

Consider O=C(c1c(Cl)cc(Br)cc1Cl)c1c[nH]c2c(NC(=O)C3CC3)nccc12 . Its measured IC50 is < 500 nM

Entry CCNC(=O)c1cc(Cl)c(C(=O)n2ccc3c(NC(=O)C4CC4)nccc32)c(Cl)c1 , IC50 reported as < 500 nM

The measured IC50 associated with CCNC(=O)c1cc(Cl)c(C(=O)c2c[nH]c3c(NC(=O)C4CC4)nccc23)c(Cl)c1 reads < 1000 nM

Recorded IC50 (compound O=C(NCCCO)c1cc(F)c(C(=O)c2c[nH]c3c(NC(=O)C4CC4)nccc23)c(F)c1 ): < 1000 nM

response.value for CN(CCO)C(=O)Nc1cc(Cl)c(C(=O)n2ccc3c(NC(=O)C4CC4)nccc32)c(Cl)c1 (field: IC50) = < 1000 nM

// sample CNC(=O)c1cc(F)c(C(=O)c2c[nH]c3c(NC(=O)C4CC4)nccc23)c(F)c1 , its IC50 was < 1000 nM

Lab book: IC50 of CN(C)CCNC(=O)c1cc(Cl)c(C(=O)n2ccc3c(NC(=O)C4CC4)nccc32)c(Cl)c1 noted as < 1000 nM

Kindly note the recorded IC50 for CC(CO)NC(=O)c1cc(Cl)c(C(=O)n2ccc3c(NC(=O)C4CC4)nccc32)c(Cl)c1 (stereo not drawn) , which is < 1000 nM

What the record says about CNCc1cc(Cl)c(C(=O)c2c[nH]c3c(NC(=O)C4CC4)nccc23)c(Cl)c1 : IC50 is < 100 nM

Per the record, O=C(NCCn1cccc1)c1cc(Cl)c(C(=O)n2ccc3c(NC(=O)C4CC4)nccc32)c(Cl)c1 has IC50 of < 1000 nM

In plain terms, N#Cc1cc(Cl)c(C(=O)c2c[nH]c3c(NC(=O)C4CC4)nccc23)c(Cl)c1 has a documented IC50 of < 500 nM

O=C(Nc1nccc2c1ccn2C(=O)c1c(Cl)cccc1Cl)C1CC1 yielded IC50 of < 1000 nM

For this compound ( O=C(NCCO)Nc1cc(Cl)c(C(=O)n2ccc3c(NC(=O)C4CC4)nccc32)c(Cl)c1 ), measured IC50 is < 1000 nM

Record summary for O=C(Nc1nccc2c1ccn2C(=O)c1c(Cl)cc(CNCCCN2CCOCC2)cc1Cl)C1CC1 : reported IC50 = < 500 nM

Summary for this compound, O=C(Nc1nccc2c1ccn2C(=O)c1c(Cl)cc(CO)cc1Cl)C1CC1 : IC50 is < 1000 nM

Item: O=C(NC1CC1)c1cc(Cl)c(C(=O)c2c[nH]c3c(NC(=O)C4CC4)nccc23)c(Cl)c1 | IC50: < 500 nM

# IC50 of O=C(NCC(O)CO)c1cc(Cl)c(C(=O)c2c[nH]c3c(NC(=O)C4CC4)nccc23)c(Cl)c1 (stereo not drawn) = < 500 nM

For record O=C(Nc1nccc2c1ccn2C(=O)c1c(Cl)cc(-c2cncnc2)cc1Cl)C1CC1 the listed IC50 is < 1000 nM

Record summary for CC(=O)Nc1nccc2c(C(=O)c3c(Cl)cc(C(=O)NCCN4CCCCC4)cc3Cl)c[nH]c12 : reported IC50 = < 1000 nM

Looking up N#Cc1cc(Cl)c(C(=O)n2ccc3cnc(NC(=O)C4CC4)cc32)c(Cl)c1 , I see its IC50 listed as < 500 nM

Per the records, this compound ( O=C(NCCOCCO)c1cc(Cl)c(C(=O)c2c[nH]c3c(NC(=O)C4CC4)nccc23)c(Cl)c1 ) has IC50 equal to < 1000 nM

Sample O=C(c1c(Cl)cccc1Cl)c1c[nH]c2c(NC(=O)C3CC3)nccc12 ; IC50 observed: < 500 nM

Lookup result for O=C(c1c(F)cccc1Cl)c1c[nH]c2c(NC(=O)C3CC3)nccc12 ; measured IC50: < 500 nM

// IC50 value for Nc1cc(Cl)c(C(=O)c2c[nH]c3c(NC(=O)C4CC4)nccc23)c(Cl)c1 : < 500 nM

The recorded IC50 for CNC(=O)c1cc(Cl)c(C(=O)c2c[nH]c3c(NC(=O)C4CC4)nccc23)c(Cl)c1 is < 500 nM

What the record says about CC(=O)Nc1cc(Cl)c(C(=O)c2c[nH]c3c(NC(=O)C4CC4)nccc23)c(Cl)c1 : IC50 is < 1000 nM

// provenance: patent US8980911B2
